Reported melting point by item:

The examples below pair each entry with its known result.
Molecule	Result type	Obs value
Cl.O=C(Nc1cccc(N2CCN(CC3COc4ccccc4O3)CC2)c1)Nc1ccc(F)c(Cl)c1 (centres unmarked)	melting point	132 to 136 °C
Cc1ccc(NC(=O)Nc2cccc(CCc3c[nH]cn3)c2)cc1Cl.Cl	melting point	237 to 239 °C
Cc1ccc(NC(=O)Nc2ccc(C)c(N3CCN(C)CC3)c2)cc1Cl.Cl	melting point	229 to 231 °C

Q) Bench note: what melting point did COc1ccc(NC(=O)Nc2ccc(C)c(C)c2)cc1N1CCN(CC2COc3ccccc3O2)CC1.Cl.Cl (centres unmarked) show?
A) 234 to 236 °C

Q) Same again, this time with Cc1ccc(NC(=O)Nc2cccc(CCC3=NCCN3)c2)cc1Cl.Cl
A) 212 to 214 °C

Q) Same again, this time with Cc1ccc(NC(=O)Nc2ccc3c(c2)CC(c2c[nH]cn2)C3)cc1C.Cl (centres unmarked)
A) 232 to 234 °C

Q) Same again, this time with Cl.Cl.O=C(Nc1cccc(N2CCN(CC3COc4ccccc4O3)CC2)c1)N1CCc2cc(F)c(Cl)cc21 (centres unmarked)
A) 202 to 204 °C

Q) Same again, this time with Cc1ccc(NC(=O)Nc2ccc3c(c2)CC(c2c[nH]cn2)CC3)cc1Cl.Cl (centres unmarked)
A) 206 to 208 °C

Measured values drawn from patent US7026357B2 for this set.
